test system: Botrytis cinerea; assay: Eggplant grey mold; type: in vivo; parameters: key: 0: No disease control; 1: Low level of control; 2: Moderate control; 3: High level of control; details: eggplant sprayed with 500 ppm, inoculated 24 h later, rated after 3-4 days
assay readout: Disease Control Rating at 500 ppm

1) Cn1cc(C(=O)Nc2ccccc2C2CCCC2)c(C(F)(F)F)n1: 0
2) Cn1cc(C(=O)Nc2ccccc2OCCCC2CCCC2)c(C(F)(F)F)n1: 0
3) Cn1cc(C(=O)Nc2ccccc2C2CCCCC2)c(Cl)n1: 0
4) Cn1cc(C(=O)Nc2ccccc2C2(C)CCCC2)c(C(F)(F)F)n1: 2
5) Cn1cc(C(=O)Nc2ccccc2C2CCCCCC2)c(C(F)(F)Cl)n1: 0
